Origin of the recorded values: the supplement of paper PMC9112550

tested on: Escherichia coli TOP10; assay: shrunken log2 fold change of peptide-encoding DNA abundance (4.5 h post-induction vs induction); higher = less antimicrobial activity (less host growth inhibition); details: time post-induction: 4.5 h; library: site-saturation at positions 5, 18, 19, 20
This section presents sequences with their documented shrunken log2 fold change values.
Form field (numeric): enter value without unit.

Below are worked cases with known answers.
• RRIRWRPPRLPRPRPRPVFEPRP = 0.333
• RRIRTRPPRLPRPRPRPTAQPRP = 0.247
• RRIRGRPPRLPRPRPRPRCAPRP = 1.09
• RRIRCRPPRLPRPRPRPDWTPRP = -0.268
• RRIRFRPPRLPRPRPRPIRTPRP = -0.0861

What does the record list as shrunken log2 fold change for RRIRERPPRLPRPRPRPTQFPRP ?
-0.118

Consider the sequence shown here: RRIRFRPPRLPRPRPRPYTVPRP What is its recorded shrunken log2 fold change?
-0.00354

Requested field: shrunken log2 fold change. Item: RRIRQRPPRLPRPRPRPNDHPRP
-0.884

Tell me the measured shrunken log2 fold change of RRIRKRPPRLPRPRPRPRKRPRP , please.
1.04

---

Some sequences, each annotated with its measured shrunken log2 fold change.
tested on: Escherichia coli TOP10; assay: shrunken log2 fold change of peptide-encoding DNA abundance (4.5 h post-induction vs induction); higher = less antimicrobial activity (less host growth inhibition); conditions: time post-induction: 4.5 h; library: site-saturation at positions 5, 18, 19, 20
When you answer, write just the number.

Past entries and their recorded results:
* RRIRMRPPRLPRPRPRPITTPRP | -0.0401
* RRIRWRPPRLPRPRPRPWNPPRP | -0.219
* RRIRDRPPRLPRPRPRPGKLPRP | 0.0495
* RRIRDRPPRLPRPRPRPPTDPRP | 0.564

Notebook entry, Escherichia coli TOP10 assay: shrunken log2 fold change of RRIRPRPPRLPRPRPRPQPFPRP = ?
-0.149

Enter reported shrunken log2 fold change observed with Escherichia coli TOP10 for RRIRKRPPRLPRPRPRPQILPRP
-0.144

Form field - read-out: shrunken log2 fold change; system: Escherichia coli TOP10; submitted item: RRIRHRPPRLPRPRPRPRAAPRP
0.368

What value of shrunken log2 fold change on Escherichia coli TOP10 does RRIRVRPPRLPRPRPRPFSSPRP have?
-0.068

Lookup: shrunken log2 fold change / Escherichia coli TOP10 / RRIRIRPPRLPRPRPRPELYPRP
-0.0779

Checklist item: shrunken log2 fold change tested on Escherichia coli TOP10, entry RRIRWRPPRLPRPRPRPLPFPRP , value?
-0.387

Form field - read-out: shrunken log2 fold change; system: Escherichia coli TOP10; submitted item: RRIRGRPPRLPRPRPRPLNAPRP
0.908

State its shrunken log2 fold change on Escherichia coli TOP10: RRIRIRPPRLPRPRPRPIKNPRP
-0.546

Item: RRIRRRPPRLPRPRPRPRMNPRP Test system: Escherichia coli TOP10 Read-out: shrunken log2 fold change Value: ?
0.545

Param readout= shrunken log2 fold change; system= Escherichia coli TOP10; entry= RRIRRRPPRLPRPRPRPKQQPRP ; returns value.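 Also: peptides expressed intracellularly from a pBAD plasmid library in pooled LB shake-flask culture, induced with 0.3% L-arabinose, DNA abundance read by NGS, three biological replicates, DESeq2 with apeglm shrinkage.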
0.0775
